test system: UO-31 renal; experiment: NCI-60 one-dose screen, 48 h (100 = growth as untreated, 0 = no growth, -100 = all killed); settings: 10 µM unless noted
Compounds without any hit were thinned out: in the full panel of roughly 83,000, 20% have a hit.
Label yes when growth is strictly below 70%; otherwise label no.

- CC(=O)N1N=C(c2ccc(Nc3nc(Nc4ccc(F)cc4)nc(Nc4ccc(Cl)cc4)n3)cc2)CC1c1ccc(N(C)C)cc1 (stereo not given): yes

Query: Hello, is growth of the following compound strictly smaller than 70%? Clc1ccc(/C=N\N2CCCCCC2)cc1
Response: no

---

test system: SNB-75 CNS; experiment: NCI-60 one-dose screen, 48 h (100 = growth as untreated, 0 = no growth, -100 = all killed); conditions: 10 µM unless noted
This is part of a sample that, as a whole, favours compounds with a hit. Of some 83,000 tested, about 20% had one in any assay.
Label rule met when growth is strictly below 70%; otherwise label rule not met.

Examples from the recorded data:
• Cc1ccc(/C=C2\COc3ccc(O)c(O)c3C2=O)cc1 = rule met
• FC(F)(F)Sc1ccc(/C=C/c2cc(/C=C/c3ccc(SC(F)(F)F)cc3)n(-c3ccccc3)n2)cc1 = rule not met

Query: Hello, is growth of the following molecule strictly smaller than 70%? CC(=O)N1N=C(c2ccc(F)cc2)CC1c1sc(N(C)Cc2ccccc2)nc1Cl (stereo not given)
Response: rule not met

Query: Hello, is growth of the following molecule strictly smaller than 70%? BrC1=C(Br)C(Br)(Br)C(Br)=C1Br
Response: rule not met

Query: Hello, is growth of the following molecule strictly smaller than 70%? c1ccc(Cc2cccc[n+]2C(c2ccccc2)c2ccccc2)cc1
Response: rule met

Query: Hello, is growth of the following molecule strictly smaller than 70%? CCCCCCCCn1ccc2cc(NC(=O)CN3CCN(c4nc(C)cc(N5CCCCC5)n4)CC3)ccc21
Response: rule not met

Query: Hello, is growth of the following molecule strictly smaller than 70%? COC(=O)c1nc(-c2ccc(C)cc2)oc1S(=O)(=O)c1ccc(Cl)cc1
Response: rule not met
